Measured IC50, listed per entry.
Target: interaction between PD-1 and PD-L1 (Homo sapiens (Human), UniProt Q9NZQ7)
Sequence (Q9NZQ7 19-238): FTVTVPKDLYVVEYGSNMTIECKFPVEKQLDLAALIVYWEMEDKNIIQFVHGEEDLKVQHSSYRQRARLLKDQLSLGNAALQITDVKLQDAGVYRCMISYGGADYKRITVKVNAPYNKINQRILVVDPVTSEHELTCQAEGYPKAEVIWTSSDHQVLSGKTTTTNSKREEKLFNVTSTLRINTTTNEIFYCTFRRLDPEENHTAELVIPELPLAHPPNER
Assay: Cisbio PD-1/PD-L1 binding assay kit (HTRF)
Settings: read-out: IC50, inhibitory activity at molecular level on the interaction between PD-1 and PD-L1
Only the number, expressed in nM, is required.

Can you share its IC50? I mean this compound: CC(=O)NCCNCc1ccc(OCc2cccc(-c3ccccc3)c2Br)cc1OCc1cccc(C#N)c1
439

Can you share its IC50? I mean this compound: COc1ccc(-c2cccc(COc3ccc(CN[C@@H](CO)C(=O)O)c(OCc4cccc(C#N)c4)c3)c2Br)cc1OC
5350

Can you share its IC50? I mean this compound: COc1ccc(-c2cccc(COc3ccc(CN[C@@H](C)C(=O)O)c(OCc4cccc(C#N)c4)c3)c2Br)cc1OC
3160

Can you share its IC50? I mean this compound: N#Cc1cccc(COc2cc(OCc3cccc(-c4ccccc4)c3Br)c(Cl)cc2CN[C@@H](CO)C(=O)O)c1
2.48

Please look at the following compound next.
Can you share its IC50? I mean this compound: N#Cc1cccc(COc2cc(OCc3cccc(-c4ccc5c(c4)OCCO5)c3Br)ccc2CN[C@@H](CO)C(=O)O)c1
38.5

# credit: patent US10941129B2
